In this section we review reported Ratio IC50 values for a set of molecules.
organism: Homo sapiens; assay: Selectivity ratio of IC50 for human MMP13 to IC50 for human ADAMTS5

INSERT INTO results (querysmiles, observedmeasurement) VALUES
  ('Cn1ccnc1[C@]1(CNC(=O)c2cc3cc(C(F)(F)F)ccc3o2)NC(=O)NC1=O', '> 1000'),
  ('O=C1NC(=O)[C@](CNC(=O)c2cc3cc(C(F)(F)F)ccc3o2)(C2CC2)N1', '> 1000'),
  ('Cc1cnc([C@]2(CNC(=O)c3cc4cc(C(F)(F)F)ccc4o3)NC(=O)NC2=O)n1C', '> 1000'),
  ('CCn1ccnc1[C@]1(CNC(=O)c2cc3cc(Cl)ccc3o2)NC(=O)NC1=O', '> 1000');

Look up Ratio IC50 of Cc1cnc([C@]2(CNC(=O)c3cc4cc(Cl)ccc4o3)NC(=O)NC2=O)n1C and report it.
> 1000

Look up Ratio IC50 of Cn1ccnc1[C@]1(CNC(=O)c2cc3cc(Cl)ccc3o2)NC(=O)NC1=O and report it.
> 1000

Look up Ratio IC50 of CCn1ccnc1[C@]1(CNC(=O)c2cc3cc(C(F)(F)F)ccc3o2)NC(=O)NC1=O and report it.
> 1000

The measurements presented in this section are drawn from ChEMBL document CHEMBL4425099.
